assay: Cytotoxic Profiling in NIH 3T3 Cell Line of Diverse Libraries Using Quantitative High-Throughput Screening; conditions: NIH 3T3 viability, CellTiter-Glo ATP luminescence, 48-72 h; series mostly up to 96.7 µM; note: nearly all actives have a fitted effect of over 55% in size
Among all 94,000 compounds or so, about 4,000 (4.3%) were called active. Not shown: some 29% with an inconclusive outcome. Calls come from the whole dose curve; as a rule, active = well fitted inhibition curve with a large enough effect; inconclusive = small, poorly fitted or top-dose-only effect; inactive = no such curve, though single readings can be large or run the other way. Only a selection was taken, and actives are over-represented in it overall.
Returns: one label drawn from active, inactive

Previously resolved entries follow.
>  <compound>
CCOc1ccccc1CN1CCc2nc(N3CCN(C)CC3)[nH]c(=O)c2CC1

>  <class>
inactive

$$$$
>  <compound>
Cc1ccc(NC(=O)[C@@H]2CNC[C@H](C(=O)NCc3ccccn3)C2)cn1

>  <class>
inactive

$$$$
>  <compound>
O=C(COc1ccc(NC(=O)C2CC2)cn1)NCc1ccc(F)cc1F

>  <class>
inactive

$$$$
>  <compound>
COc1ccc(NC(=O)[C@@H]2C[C@@H](c3ccc(F)cc3)N(CCOc3ccccc3)C2)cn1

>  <class>
active

$$$$

Now for a further compound.
Which outcome was assigned to O=C(Cn1nc(-c2ccco2)ccc1=O)NC1CCCc2c1[nH]c1c(Cl)cccc21 (stereo not given) in this test?
inactive
